- Tested on: α-smooth muscle actin (aSMA) positive LL29 cells
- protocol: Inhibition of the fibrotic process: αSMA staining in TGF-β1 treated LL29 fibroblasts from IPF patients
- test conditions: Homo sapiens, Fibroblast, 96 h
assay readout: EC50 (nM)
Give bare numbers, in nM.

Provide EC50 for all items below, preserving their order.
1. Cc1ncc(-c2ccc3cnc(NC(=O)c4cccnc4)cc3n2)s1
2. CN(C)[C@H]1CC[C@H](C(=O)Nc2cc3cc(-c4cncs4)cnc3cn2)CC1
3. O=C(Nc1cc2cc(-c3cnn4c3CN(CCF)CC4)ncc2cn1)C1CCC(F)(F)CC1
4. CN1CCN(c2ccc(C(=O)Nc3cc4cc(-c5cnn(C)c5)ncc4cn3)cn2)CC1
5. Cn1cc(-c2ccc3cnc(NC(=O)c4cnn(C5CCNCC5)c4)cc3n2)cn1
6. Cc1ncc(C(=O)Nc2cc3cc(-c4cnc(C)n4C)ncc3cn2)s1
7. CC(C)CN1CCC(C(=O)Nc2cc3cc(-c4nnnn4C)cnc3cn2)CC1

[A]
988
4810
416
694
376
3190
4900

Provide EC50 for all items below, preserving their order.
1. Cn1cc(-c2ccc3cnc(NC(=O)C4CCN(Cc5ncccn5)CC4)cc3n2)cn1
2. CN1CCN(c2ccc(C(=O)Nc3cc4nc(-c5cnn(C)c5)ccc4cn3)cn2)CC1
3. Cn1cncc1-c1ccc2cnc(NC(=O)C3CCC(F)(F)CC3)cc2n1
4. C[C@H]1CCCN1CC(=O)Nc1cc2cc(-c3cnn(C)c3)ncc2cn1
5. Cc1nnc(-c2cnc3cnc(NC(=O)c4ccnc(N5CCN(C)CC5)c4)cc3c2)s1
6. Cc1ncc(-c2ccc3cnc(NC(=O)[C@H]4CC[C@H](CO)CC4)cc3n2)s1
7. CN1CCC(Nc2cncc(C(=O)Nc3cc4cc(-c5cnn(C)c5)ncc4cn3)c2)CC1

[A]
1: 4060; 2: 432; 3: 1480; 4: 604; 5: 3230; 6: 277; 7: 2100

These measurements were taken from patent US10703748B2.
